Values from paper PMC6271101

Assay: MTT cytotoxicity assay, HCT-116
Assay type: cell-based
Settings: human, HCT-116 colon carcinoma cells; HCT-116, MTT; read-out: Cytotoxic Activity (IC50 µmol/L) HCT-116
Recorded IC50 at 18 h for the following compounds

Exercise: Output measured IC50 at 18 h for this item: C/C(O[C@@H]1O[C@H](CO)[C@@H](O)[C@H](O)[C@H]1O)=C1/C=CC(=O)O1 [Compound 1]
Key: > 100 µmol/L

Exercise: Output measured IC50 at 18 h for this item: CC(C)=CCOc1c2ccoc2cc2oc(=O)ccc12 [Compound 10, Isoimperatorin]
Key: > 100 µmol/L

Exercise: Output measured IC50 at 18 h for this item: CC(C)(O)[C@@H]1Cc2cc3ccc(=O)oc3cc2O1 [Compound 9, (−)-Marmesin]
Key: 50 µmol/L

Others:
Exercise: Output measured IC50 at 18 h for this item: COc1cc(-c2oc3cc(O)cc(O)c3c(=O)c2O[C@@H]2O[C@H](CO[C@@H]3O[C@@H](C)[C@H](O)[C@@H](O)[C@H]3O)[C@@H](O)[C@H](O)[C@H]2O)ccc1O [Compound 8]
Key: > 100 µmol/L
